Assay: hemolysis, 50% release of hemoglobin from human red blood cells
Details: human, red blood cells
assay endpoint: HC50 at 1 h (µM)
Give the value in µM but do not write µM after it.

For record COCCOCCOCCOCCOCCOCCNC(=O)[C@H]1[C@@H]2C[C@@H](O[C@@H]3O[C@H](C)[C@@H](O)[C@H](N)[C@@H]3O)/C=C/C=C/C=C/C=C/C=C/C=C/C=C/[C@H](C)[C@@H](O)[C@@H](C)[C@H](C)OC(=O)C[C@H](O)C[C@H](O)CC[C@@H](O)[C@H](O)C[C@H](O)C[C@](O)(C[C@@H]1O)O2 [Example II] the listed HC50 at 1 h is 42

All figures here come from patent US5606038A.
